Target: T1, Sso7d (Sulfolobus solfataricus, UniProt P39476 1-64)
T1 sequence: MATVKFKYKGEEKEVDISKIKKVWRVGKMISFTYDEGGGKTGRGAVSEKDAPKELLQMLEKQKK
Test: EMSA; apparent Kd; 4 mM Mg2+, 25 C; EMSA: 50 mM Tris-HCl pH 8.0, 2 mM beta-mercaptoethanol, 0.1 mg/ml BSA, 4 mM MgCl2, 5% glycerol, 2 nM probe, 10 min at 25 C (room temperature), 5% PAGE in 0.1x TBE; Tm: 10 mM potassium phosphate pH 7.0, 20-90 C
Settings: protein: recombinant; label: 32P on R30; blunt

binder: 30-bp RNA:DNA hybrid (R30/Com30) (DNA:RNA, R30 strand is RNA) RNA: UGCUUCCUUCAAUGUGCUGGGAUCCUACAA DNA: TTGTAGGATCCCAGCACATTGAAGGAAGCA
unitInfo: nM
Kd: 500
